- test target: recombinant eIF4E (Homo sapiens (Human), UniProt P06730)
- Sequence (P06730 whole entry): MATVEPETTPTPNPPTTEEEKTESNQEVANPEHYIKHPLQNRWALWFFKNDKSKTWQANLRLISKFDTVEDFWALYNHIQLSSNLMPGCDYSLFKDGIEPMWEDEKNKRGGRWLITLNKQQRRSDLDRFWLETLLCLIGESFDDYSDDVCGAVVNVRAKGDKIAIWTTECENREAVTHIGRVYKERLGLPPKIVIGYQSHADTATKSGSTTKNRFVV
- test description: Fluorescence polarization competition assay for eIF4E binding potency
- test parameters: inhibition of eIF4E/EDA-m7GDP-ATTO-550 binding by 50%; Table 4B calculated values; read-out: IC50
property label: IC50 (nM)

test smiles: Cc1cc(-c2cc(Cl)ccc2OCCn2c(C)nc3c(C)nc(-c4ccccc4)c(C#N)c3c2=O)c2scc(C(=O)O)c2n1
property label: IC50
reported: 12.3

(1) Cc1cc(-c2cc(Cl)ccc2OCCn2c(C)nc3cc(C(F)(F)F)c(-c4cc(F)cnc4C)c(C#N)c3c2=O)c2scc(C(=O)OCCN3CCCC3)c2n1
(2) Cc1cc(-c2cc(Cl)ccc2OCCn2c(C)nc3cc(C(F)(F)F)c(-c4cncc(C)c4C)c(C#N)c3c2=O)c2scc(C(=O)O)c2n1
(3) Cc1cc(-c2cc(Cl)ccc2OCCn2c(C)nc3cc(C(F)(F)F)c(-c4cnccc4C)c(C#N)c3c2=O)c2scc(C(=O)O)c2n1
Problem: Rank the 3 compounds: largest IC50 first, smallest last. Dear reader, please state the labels in the requested order.
Result: 1, 3, 2
(1: 1040 nM, 3: 17 nM, 2: 11.2 nM)

(P) Cc1nc2cnc(N(C)C3CCN(CC(F)(F)C(F)(F)F)CC3)c(C#N)c2c(=O)n1CC#Cc1ccc(Cl)cc1-c1ccnc2c(C(=O)O)csc12
(Q) Cc1nc2cc(C(F)(F)F)c(CN3CCN(C)CC3)c(C#N)c2c(=O)n1CCOc1ccc(Cl)cc1-c1ccnc2c(C(=O)O)csc12
Problem: Hi, I'm comparing P with Q and wondering which one has the bigger number for IC50. Any idea? Your choice should be expressed through its label.
Result: Q
(Q: 38.4 nM, P: 14.6 nM)

====

- test target: recombinant eIF4E (Homo sapiens (Human), UniProt P06730)
- test description: Fluorescence polarization competition assay for eIF4E binding potency
- test parameters: inhibition of eIF4E/EDA-m7GDP-ATTO-550 binding; calculated IC50 values, Table 4B; read-out: IC50
property label: IC50 (nM)

Use the examples below as a reference point.
test smiles: N#Cc1cc(C(F)(F)F)cc2ncn(CCOc3ccc(Cl)cc3-c3ccnc4c(C(=O)O)csc34)c(=O)c12
property label: IC50
value units: nM
reported: 16.4

test smiles: Cc1nc2cc(C(F)(F)F)c(N3CC4(C3)CN(C3CC3)C4)c(C#N)c2c(=O)n1CC#Cc1ccc(Cl)cc1-c1ccnc2c(C(=O)O)csc12
property label: IC50
value units: nM
reported: 22.9

test smiles: Cc1nc2cnc(N3CC4(CCN4CC(C)(C)F)C3)c(C#N)c2c(=O)n1CCOc1ccc(Cl)cc1-c1ccnc2c(C(=O)O)csc12
property label: IC50
value units: nM
reported: 21.5

(A) Cc1nc2cnc(N3CCN(C(C)(C)CC#N)CC3)c(C#N)c2c(=O)n1CC#Cc1ccc(Cl)cc1-c1ccnc2c(C(=O)O)csc12
(B) Cc1cc(-c2cc(Cl)ccc2OCCn2c(C)nc3cc(C(F)(F)F)c(N4CC5(CN(C)C5)C4)c(C#N)c3c2=O)c2sc(C)c(C(=O)O)c2n1
Problem: Given the listed records, identify the one among A and B with higher IC50. Answer by stating the label of the chosen item.
Result: A
(A: 14.9 nM, B: 6.33 nM)

====

- test target: recombinant eIF4E (Homo sapiens (Human), UniProt P06730)
- test description: Fluorescence polarization competition assay for eIF4E binding potency
- test parameters: inhibition of eIF4E/EDA-m7GDP-ATTO-550 binding; calculated IC50 values, Table 4B; read-out: IC50
pIC50: −log10 of the molar value.
property label: pIC50

# count of solved cases: 5
molecule: Cc1nc2cnc(N(C)C3CCN(CC(C)(F)F)CC3)c(C(N)=O)c2c(=O)n1CC#Cc1ccc(Cl)cc1-c1ccnc2c(C(=O)OC(C)(C)C)csc12 [compound 1960]
reported: 4.36
//
molecule: Cc1nc2cnc(N(C)CCCN(C)CC(F)(F)F)c(C#N)c2c(=O)n1CC#Cc1ccc(Cl)cc1-c1ccnc2c(C(=O)O)csc12 [compound 1497]
reported: 7.89
//
molecule: Cc1nc2cnc(N3CCN(CCF)C4(CC4)C3)c(C#N)c2c(=O)n1CCOc1ccc(Cl)cc1-c1ccnc2c(C(=O)O)csc12 [compound 1338]
reported: 8.02
//
molecule: Cc1nc2cnc(N(C)C3CCN(CC(C)F)CC3)c(C#N)c2c(=O)n1CCOc1ccc(Cl)cc1-c1ccnc2c(C(=O)O)csc12 (stereo not drawn) [compound 1654]
reported: 7.68
//
molecule: Cc1nc2cnc(N(C)C3CCN(CCC(F)(F)F)CC3)c(C#N)c2c(=O)n1CC#Cc1ccc(Cl)cc1-c1ccnc2c(C(=O)O)csc12 [compound 1520]
reported: 7.75

(I) Cc1sc2c(-c3cc(Cl)ccc3OCCn3c(C)nc4cc(C(F)(F)F)c(N5CCN(C)CC5)c(C#N)c4c3=O)cc(CF)nc2c1C(=O)O [compound 1237]
(II) Cc1nc2cnc(C#CCN(C)C3(C)CC3)c(C#N)c2c(=O)n1CCOc1ccc(Cl)cc1-c1ccnc2c(C(=O)O)csc12 [compound 1346]
(III) Cc1nc2cnc(-c3cccc4c3CCN(CC(F)F)C4)c(C#N)c2c(=O)n1CC#Cc1ccc(Cl)cc1-c1ccnc2c(C(=O)O)csc12 [compound 1558]
(IV) Cc1nc2cc(C(F)(F)F)c(N3CCN(C)CC3)c(C#N)c2c(=O)n1CCOc1ccc(Cl)cc1-c1ccnc2c(Cl)csc12 [compound 1247]
(V) Cc1nc2cnc(N(C)C3CCN(CC(F)F)CC3)c(C#N)c2c(=O)n1CC#Cc1ccc(Cl)cc1-c1ccnc2c(C(N)=O)csc12 [compound 1281]
Problem: Order the records by pIC50, with each subsequent value no larger than the one before. Sort and list the labels as requested.
Result: I, II, IV, III, V
(I: 8.18, II: 7.71, IV: 7.45, III: 7.16, V: 6.93)

(P) Cc1nc2cnc(N3CCN(C4(C(F)F)CC4)CC3)c(C#N)c2c(=O)n1CCOc1ccc(Cl)cc1-c1ccnc2c(C(=O)O)csc12 [compound 1310]
(Q) Cc1nc2cc(C(F)(F)F)c(N3CCN(C)CC3)c(C#N)c2c(=O)n1CCOc1ccc(Cl)cc1-c1ccc(F)c2c(C(=O)O)csc12 [compound 1214]
(R) Cc1cc(-c2cc(Cl)ccc2OCCn2c(C)nc3cnc(N(C)C4CCN(CC(C)(F)F)CC4)c(C#N)c3c2=O)c2scc(C(=O)O)c2n1 [compound 1563]
(S) Cc1nc2cnc(N(C)C3CCN(CC(C)(F)F)CC3)c(C#N)c2c(=O)n1CC#Cc1ccc(Cl)cc1-c1ccnc2c(C(N)=O)csc12 [compound 1596]
Problem: Ascending sort, pIC50. Answer by naming the labels in the order asked.
Result: S, P, R, Q
(S: 6.18, P: 7.67, R: 7.89, Q: 8.29)

(A) Cc1nc2cnc(N3CCN(C)C(CF)C3)c(C#N)c2c(=O)n1CC#Cc1ccc(Cl)cc1-c1ccnc2c(C(=O)O)csc12 (stereo not drawn) [compound 1459]
(B) Cc1cc(-c2cc(Cl)ccc2OCCn2c(C)nc3cc(C(F)(F)F)c(N4CCN(CCO)CC4)c(C#N)c3c2=O)c2sc(C)c(C(=O)O)c2n1 [compound 1393]
Problem: Higher pIC50 between A and B ? Write down the label of the entry you select.
Result: B
(B: 7.88, A: 7.68)

(A) Cc1ccc(S(=O)(=O)NC(=O)c2csc3c(-c4cc(Cl)ccc4C#CCn4c(C)nc5cnc(N(C)C6CCN(CC(C)(F)F)CC6)c(C#N)c5c4=O)ccnc23)cn1 [compound 1680]
(B) Cc1nc2c(N3CCN(C4(C(F)F)COC4)CC3)ncc(C#N)c2c(=O)n1CCOc1ccc(Cl)cc1-c1ccnc2c(C(=O)O)csc12 [compound 1397]
Problem: Compare A and B by numeric pIC50 and name the larger one. State your choice using its label.
Result: B
(B: 7.83, A: 7.63)

(I) Cc1nc2cnc(CC3CCN(CC(F)F)CC3)c(C#N)c2c(=O)n1CCOc1ccc(Cl)cc1-c1ccnc2c(C(=O)O)csc12 [compound 1484]
(II) Cc1nc(N2CCN(CCF)CC2)c(C#N)c2c(=O)n(CCOc3ccc(Cl)cc3-c3ccnc4c(C(=O)O)csc34)c(C)nc12 [compound 1624]
Problem: // compare measured pIC50, left I , right II , return larger I would appreciate it if you answered with the label of your choice.
Result: II
(II: 8.38, I: 7.64)

====

- test target: recombinant eIF4E (Homo sapiens (Human))
- test description: Fluorescence polarization competition assay for eIF4E binding potency
- test parameters: fluorescence polarization competition, 75 nM recombinant eIF4E, 20 nM EDA-m7GDP-ATTO-550; IC50 class; read-out: elF4E FP
pIC50: −log10 of the molar value.
# Lookup of reported pIC50 keyed by entry

Problem: Record request: pIC50 value, item C#Cc1c(C(F)(F)F)cc2nc(C)n(CCOc3ccc(Cl)cc3-c3cc(C)nc4c(C(=O)O)csc34)c(=O)c2c1C#N
Result: > 7.30

Problem: Which pIC50 value belongs to Cc1nc2cc(C(F)(F)F)cc(C#N)c2c(=O)n1CCOc1ccc(Cl)cc1-c1nccc2c(C(=O)O)csc12 ?
Result: 6.00 to 7.30
